experimental_target: Ba/F3-FL-EGFR-H773-V774 ins NPH (Homo sapiens, UniProt P00533, DUP771-773, cells depend on it)
Sequence (P00533 with tags, fused parts or gaps DUP771-773): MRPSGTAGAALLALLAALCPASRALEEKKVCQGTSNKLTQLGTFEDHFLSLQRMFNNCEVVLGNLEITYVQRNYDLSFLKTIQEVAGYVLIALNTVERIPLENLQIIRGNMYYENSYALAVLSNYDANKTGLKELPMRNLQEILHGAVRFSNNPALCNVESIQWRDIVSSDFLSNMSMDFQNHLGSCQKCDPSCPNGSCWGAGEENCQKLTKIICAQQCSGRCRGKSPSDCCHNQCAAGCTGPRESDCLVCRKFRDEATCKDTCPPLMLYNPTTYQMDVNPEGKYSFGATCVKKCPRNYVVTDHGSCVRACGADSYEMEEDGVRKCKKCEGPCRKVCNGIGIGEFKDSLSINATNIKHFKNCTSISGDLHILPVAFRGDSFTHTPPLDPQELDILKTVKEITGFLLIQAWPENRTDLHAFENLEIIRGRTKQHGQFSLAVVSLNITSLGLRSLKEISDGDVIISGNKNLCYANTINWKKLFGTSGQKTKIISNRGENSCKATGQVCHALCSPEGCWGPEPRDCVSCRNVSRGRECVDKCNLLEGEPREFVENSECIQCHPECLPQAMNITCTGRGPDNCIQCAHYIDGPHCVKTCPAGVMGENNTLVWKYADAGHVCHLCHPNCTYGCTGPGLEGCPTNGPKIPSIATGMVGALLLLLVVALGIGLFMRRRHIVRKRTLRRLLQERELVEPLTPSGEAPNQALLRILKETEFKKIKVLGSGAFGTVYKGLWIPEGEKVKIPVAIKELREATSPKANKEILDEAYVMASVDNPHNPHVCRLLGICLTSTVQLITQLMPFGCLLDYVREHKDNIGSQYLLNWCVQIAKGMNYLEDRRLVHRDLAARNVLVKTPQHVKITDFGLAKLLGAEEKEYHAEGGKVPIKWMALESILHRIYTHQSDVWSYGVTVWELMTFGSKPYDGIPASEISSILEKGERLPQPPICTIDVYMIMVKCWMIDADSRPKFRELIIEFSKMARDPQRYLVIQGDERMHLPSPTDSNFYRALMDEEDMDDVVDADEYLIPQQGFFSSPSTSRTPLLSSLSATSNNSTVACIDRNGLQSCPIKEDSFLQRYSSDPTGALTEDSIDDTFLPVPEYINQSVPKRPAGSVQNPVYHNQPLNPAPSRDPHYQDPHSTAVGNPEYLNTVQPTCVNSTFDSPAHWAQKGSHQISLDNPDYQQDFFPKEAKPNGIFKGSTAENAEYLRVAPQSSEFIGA
assay_remarks: Cell proliferation inhibitory activity test (CellTiter-Glo), EGFR exon 20 insertion mutation
Assay type: cell-based
reported_conditions: 72 h; class symbols; read-out: Ba/F3-FL-EGFR IC50 (nM) H773-V774ins NPH
GI50 overview

Incoming: Provide one value: measured GI50 of C=CC(=O)Nc1cc(Nc2ncc(C(=O)OC(C)C)c(-c3cn(C)c4ccccc34)n2)c(OC)cc1N1C[C@H]2CN(C)C[C@H]2C1 [Example 36]
Outgoing: < 5 nM

Incoming: Give the reported GI50 for this compound. C=CC(=O)Nc1cc(Nc2ncc(C(=O)OC(C)C)c(-c3cn(C)c4ccccc34)n2)c(OC)cc1N(C)CC1(N(C)C)CC1 [Example 41]
Outgoing: < 5 nM

Incoming: Give recorded GI50. C=C(F)C(=O)Nc1cc(Nc2ncc(-c3nnc(C)o3)c(-c3cn(C)c4ccccc34)n2)c(OC)cc1N(C)[C@H]1[C@@H]2CN(C)C[C@@H]21 [Example 34]
Outgoing: 5 to 50 nM

###

Recorded GI50, one value per entry.
experimental_target: Ba/F3-FL-EGFR-H773-V774 ins NPH (Homo sapiens, UniProt P00533, DUP771-773, cells depend on it)
assay_remarks: Cell proliferation inhibitory activity test (CellTiter-Glo), EGFR exon 20 insertion mutation
Assay type: cell-based
reported_conditions: 72 h; class symbols; read-out: Ba/F3-FL-EGFR IC50 (nM) H773-V774ins NPH

Completed entries (count: 5):
smi=C=CC(=O)Nc1cc(Nc2ncc(C(=O)OC(C)C)c(-c3cn(C)c4ccccc34)n2)c(OC)cc1N(C)[C@H]1[C@@H]2CN(C)C[C@@H]21 result="< 5 nM"
smi=C=CC(=O)Nc1cc(Nc2ncc(-c3nnc(C)o3)c(-c3c[nH]c4ccccc34)n2)c(OC)cc1N(C)CCN(C)C result="< 5 nM"
smi=[2H]C([2H])([2H])n1cc(-c2nc(Nc3cc(NC(=O)C=C)c(N(C)CCN(C)C)cc3OC)ncc2-c2nnc(C)o2)c2ccccc21 result="< 5 nM"
smi=C=CC(=O)Nc1cc(Nc2ncc(-c3nnc(C)s3)c(-c3cn(C)c4ccccc34)n2)c(OC)cc1N(C)CCN(C)C result="5 to 50 nM"
smi=C=CC(=O)Nc1cc(Nc2ncc(-c3nnc(C)o3)c(-c3cn(C)c4ccccc34)n2)c(OC)cc1N(C)CC1(N(C)C)CC1 result="< 5 nM"

Here is another compound to look at.
Incoming: Determine its reported GI50: [2H]C([2H])([2H])n1cc(-c2nc(Nc3cc(NC(=O)C=C)c(N(C)[C@H]4[C@@H]5CN(C)C[C@@H]54)cc3OC)ncc2C(=O)OC(C)C)c2ccccc21
Outgoing: < 5 nM
